System: Human papillomavirus type 1a protein E7 (residues 44-93)
measurementNotes: HPV1a E7 fragment binders on microarrays, primary screen, biochemical, small-molecule microarray, residues 44-93, 635 nm fluorescence (AID 1108);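 also: E7 fragment applied at 1 µg/mL in TBST for 1 h at 4 C; score combines spot fluorescence with its signal to noise ratio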
conditionInfo: small-molecule microarray binding, fluorescence 635 nm; higher = more signal
Here the recorded composite z-score is given for each entry.
Answer with the value's number alone.

Consider the reported composite z-score for these compounds:
COC(=O)C1=CC(c2ccc(CO)cc2)=CC(C2CC2)N(C)C=C1C(=O)OC (centres undefined)	-0.139
COCCCNC(=O)[C@@]1(CCS(=O)(=O)c2ccccc2)N=C(c2ccc(OCCCO)cc2)O[C@H]1c1ccccc1CN=[N+]=[N-]	1.13
CC(C)CCC[C@@H](C)[C@H]1CC[C@@]2(C)C3=C(CC[C@]12C)[C@@]1(C)CC[C@H](OC(=O)CCl)C(C)(C)C1CC3 (some centres undefined)	0.637

Next up:
For Human papillomavirus type 1a protein E7 (residues 44-93), provide composite z-score of CC(C)N1CC=CC23O[C@@H]4/C=C\CCCOC(=O)C4[C@H]2C(=O)N(CCCO)[C@@H]3C1=O (some centres undefined) please.
-0.0197

---

measuredTarget: Follistatin-related protein 3 (Homo sapiens) (UniProt O95633)
Sequence (O95633 whole entry, looked up): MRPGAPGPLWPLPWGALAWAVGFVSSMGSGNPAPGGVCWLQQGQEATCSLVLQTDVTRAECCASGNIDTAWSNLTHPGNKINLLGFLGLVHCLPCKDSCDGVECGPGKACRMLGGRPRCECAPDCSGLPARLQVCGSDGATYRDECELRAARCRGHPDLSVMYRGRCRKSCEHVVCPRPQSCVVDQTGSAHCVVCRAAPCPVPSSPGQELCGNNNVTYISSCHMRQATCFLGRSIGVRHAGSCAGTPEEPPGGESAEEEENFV
measurementNotes: FSTL3 binders on small-molecule microarrays, primary screen, biochemical, small-molecule microarray, 635 nm fluorescence (AID 1105);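 also: score merges emission near 667 nm and signal to noise per printed spot across three slides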
conditionInfo: FSTL3 binding, higher = more signal
The threshold is inclusive: composite z-score of exactly 0.4 counts as t; values below receive f.

Some solved entries appear below for comparison.
C=C(COC)C(=O)CC[C@H](OC(=O)c1cccnc1)c1cccc(OCCO)c1	t
O=C1N(CCS(=O)(=O)c2ccccc2)Cc2ccccc2[C@@H]2OC(c3ccc(OCCCO)cc3)=N[C@]12Cc1ccccc1	t
COc1ccc([Si](C)(C)[C@H]2[C@H](CCO)O[C@@]3(C(=O)N(Cc4ccc(N5C(=O)c6cccc7cccc5c67)cc4)c4ccccc43)[C@@H]2C)cc1	f
O=C(N1CCCCC1)[C@@]1(Cc2ccccc2)N=C(c2ccc(OCCCO)cc2)O[C@H]1c1ccccc1	t
C=C(CCCC)/C(=C/C[C@H](OC(=O)c1ccncc1)c1ccc(CO)o1)c1cnc2ccccc2c1	t

Tell me whether composite z-score is at least 0.4 here: "C/C=C/[C@@H](CCn1cc(CCO[Si](C(C)C)(C(C)C)C(C)C)nn1)[Si](C)(C)c1ccc(OC)cc1"
f

Again, but for "O=C(O)[C@H]1C[C@H]2C(=O)NCC(=O)N2[C@H]1c1cccc(OCCO)c1"
t

---

List of composite z-score values.
Tested on: XIP peptide (Xip251-270)
measurementNotes: small-molecule binders of XIP peptide, primary screen, biochemical, small-molecule microarray, fluorescence 635/667 nm, 0.5 µg/mL protein (AID 1183)
conditionInfo: small-molecule microarray binding, fluorescence 635 nm; higher = more signal
Could you respond with only the numeric value?

Bench note: what composite z-score did CC(C)CCC[C@@H](C)[C@H]1CC[C@@]2(C)C3=C(CC[C@]12C)[C@@]1(C)CC[C@H](OC(=O)CCl)C(C)(C)C1CC3 (some centres undefined) show?
0.174

What do you get for "COCCOC(=O)N1C(=O)[C@@]2(c3cc(C#CCNC(N)=O)ccc31)[C@H](C(=O)NC[C@H](O)c1ccccc1)[C@H]1C(=O)O[C@H](c3ccccc3)[C@H](c3ccccc3)N1[C@@H]2c1ccc(O)cc1" ?
0.178

---

measurementNotes: adipocyte viability effects, profiling panel, cell-based, 3T3-L1 adipocytes, calcein-AM fluorescence, 48 h, basal (AID 1163)
conditionInfo: 3T3-L1 adipocytes viability, higher = more signal
Assign a class from recorded z-score; defined classes: class A (below 0.8), class B (0.8 to below 1), class C (1 or more)

# example entries with known answers
O=c1n(-c2ccccc2)c(=O)n2n1CC(COc1ccccc1)=C1[C@@H](CCc3ccccc3)OB(O)C[C@@H]12	class A
CC1CC/C=C\[C@H]2OC34C=CCN(C(C)C)C(=O)[C@H]3N(C(CO)C(C)C)C(=O)[C@@H]4C2C(=O)O1 (some centres undefined)	class A
O=C(N1CCCCC1)[C@@]1(Cc2ccccc2)N=C(c2ccc(OCCCO)cc2)O[C@H]1c1ccccc1	class C
COCCOC(=O)N1C(=O)[C@@]2(c3cc(C#CC4(O)CCCCCC4)ccc31)[C@H](c1ccc(O)cc1)N1[C@H](c3ccccc3)[C@H](c3ccccc3)OC(=O)[C@H]1[C@@H]2C(N)=O	class C
O=C(NCC(F)(F)F)[C@@H]1c2ccccc2C(=O)N(C2Cc3ccccc3C2)[C@H]1c1ccc(CO)cc1	class A
C#CCOc1ccc(C[C@H]2C(=O)O[C@H](Cc3ccccc3)[C@H](/C=C/C3CC3)N2CC#C)cc1	class B

Categorize the following entry: "C=C(CCCC)/C(=C/C[C@H](OC(=O)c1ccncc1)c1ccc(CO)o1)c1cnc2ccccc2c1"
class B

Would you mind doing "CC(C)(C)OC(=O)CC[C@@]1(C(=O)N2CCOCC2)N=C(c2ccc(OCCCO)cc2)O[C@@H]1c1ccccc1" as well?
class B

---

measurementNotes: small-molecule microarray binders of probe aEGFR, primary screen, biochemical, biotinylated probe, 635/667 nm fluorescence (AID 1097);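 also: probe is a biotinylated anti-EGFR antibody binding compounds printed on slides; score combines fluorescence near 667 nm and signal to noise of each spot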
conditionInfo: higher = more signal
Classes (composite z-score): lower bin (below -0.1), middle bin (-0.1 to below -0.06), upper bin (-0.06 or more)

Worked examples, 5 compounds total:
C=CCN1C(=O)[C@]2(O[C@H](CCn3cc([C@H](O)c4ccccc4)nn3)[C@@H]([Si](C)(C)c3ccc(OC)cc3)[C@@H]2C)c2cc(N3CCOC3=O)ccc21	lower bin
COCCOC(=O)N1C(=O)[C@@]2(c3cc(C#CC4(O)CCCCCC4)ccc31)[C@H](c1ccc(O)cc1)N1[C@H](c3ccccc3)[C@H](c3ccccc3)OC(=O)[C@H]1[C@@H]2C(N)=O	middle bin
CC(CO)N1C(=O)[C@@H]2C3C(=O)OCCC/C=C\[C@H]3OC23C=CCN(Cc2ccccc2)C(=O)[C@@H]13 (some centres undefined)	lower bin
COc1ccc([Si](C)(C)[C@@H]2[C@@H](CCn3cc([C@H](O)c4ccccc4)nn3)O[C@]3(C(=O)N(C)c4c(Br)cc(C)cc43)[C@H]2C)cc1	upper bin
O=C(O)[C@H]1C[C@H]2C(=O)NCC(=O)N2[C@H]1c1cccc(OCCO)c1	upper bin

Determine which band this compound sits in: "C=C(COC)C(=O)CC[C@@H](OC(=O)c1ccccc1-c1ccccc1C(=O)O)c1cccc(OCCO)c1"
lower bin

Moving on to the next compound: "NCCCCCCNC(=O)[C@@H]1C[C@@H]2C(=O)N[C@@H](Cc3ccccc3)C(=O)N2[C@@H]1c1ccc(O)cc1"
middle bin

Same again, this time with "C=CCOC(=O)[C@H]1[C@@H]2C(=O)O[C@@H](c3ccccc3)[C@@H](c3ccccc3)N2[C@@H](c2ccc(OCCOC(=O)[C@H]3C[C@H]4C(=O)N5CCC[C@H]5C(=O)N4[C@H]3c3cccc(OCCO)c3)cc2)[C@]12C(=O)Nc1ccccc12"
middle bin

---

Consider the following compounds and their measured composite z-score readings.
measurementNotes: binders from COS7 lysate, DM2A8 probe, primary screen, torsin A project, cell lysate, small-molecule microarray, fluorescence 635/667 (AID 1065)
conditionInfo: higher = more signal, COS7 lysate expressing mutant human TOR1A

What value of composite z-score has been recorded for this entry: "C=C(C(=O)CC[C@@H](OC(C)=O)c1ccccc1OCCO)C(C)C"
-0.363

Consider next the compound "COc1ccc([Si](C)(C)[C@H]2[C@H](CC(=O)N(CCO)Cc3ccccc3)O[C@@]3(C(=O)N(Cc4cccc(N5C(=O)COc6ccccc65)c4)c4ccccc43)[C@@H]2C)cc1" in the same way.
0.347

What about this compound? "C=C(C1=CCN(S(=O)(=O)c2ccc(C)cc2)C1)[C@@H](OC(C)=O)[C@@H]1CCCN1S(=O)(=O)c1ccccc1[N+](=O)[O-]"
-0.189

Proceed to CC1CC/C=C\[C@H]2OC34C=CCN(C(C)C)C(=O)[C@H]3N(C(CO)C(C)C)C(=O)[C@@H]4C2C(=O)O1 (stereo not given in full)
-0.267

Same question, "O=C1O[C@@H](c2ccccc2)[C@@H](c2ccccc2)N2[C@@H](c3ccc(OCCO)cc3)[C@]3(C(=O)Nc4ccc(C#CC5(O)CCCCCC5)cc43)[C@@H](C(=O)NC[C@H](O)c3ccccc3)[C@H]12" this time
1

Same question for CCCCCN1CC=CC23O[C@@H]4/C=C\CCC(C)OC(=O)C4[C@H]2C(=O)N(CCCO)[C@@H]3C1=O (stereo not given in full) please.
2.09

---

Recorded composite z-score by entry
measuredTarget: Dickkopf-related protein 1 (Homo sapiens)
measurementNotes: DKK1 binders on small-molecule microarrays, primary screen, biochemical, small-molecule microarray, 635 nm fluorescence scan (AID 1106);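 also: score merges emission near 667 nm with signal to noise over three replicate slides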
conditionInfo: DKK1 binding, higher = more signal
Hey, just send me the number, nothing else.

C=CCN1C(=O)[C@@]2(O[C@@H](CCn3cc(CCO)nn3)[C@H]([Si](C)(C)c3ccc(OC)cc3)[C@H]2C)c2cc(N3C(=O)c4cccc5cccc3c45)ccc21	0.315
C=C[C@H](OC)[C@@H](OC(=O)Nc1ccc(OC)cc1)c1ccc(OC)c(O)c1	-1.61

I would be grateful if you could share the reported composite z-score for "COCCCN1C(=O)[C@@]2(Cc3ccccc31)c1ccccc1C(=O)N(Cc1ccccc1Cl)[C@H]2c1ccc(CO)cc1" .
-0.685

Entry "C=C(C(=O)CC[C@@H](OC(C)=O)c1ccccc1OCCO)C(C)C" please
0.108

Again, but for "C=CCNC(=O)[C@@H]1[C@H]2C(=O)O[C@H](c3ccccc3)[C@H](c3ccccc3)N2[C@H](c2ccc(O)cc2)[C@@]12C(=O)N(C(=O)OCCOC)c1ccc(C#Cc3ccc(OC)cc3)cc12"
1.12

One more molecule: "[N-]=[N+]=Nc1ccccc1[C@H]1OC(c2ccc(OCCCO)cc2)=N[C@@]1(Cc1ccccc1)C(N)=O"
0.0868

How about this molecule: "O=C(O)[C@H]1C[C@H]2C(=O)NCC(=O)N2[C@H]1c1cccc(OCCO)c1"
0.552

Param item: "CCCNC(=O)[C@@H]1c2ccccc2C(=O)N(Cc2cc(C(F)(F)F)cc(C(F)(F)F)c2)[C@H]1c1ccc(CO)cc1"
-0.196

Param item: "CC(C)[C@@H](C(=O)O)n1cc(-c2ccccn2)nn1"
0.418

Queued: "CC(C)(C)OC(=O)CC[C@]1(C(=O)NCc2ccccc2)COC(c2ccc(OCCCO)cc2)=N1"
-1.17

Then "NCCCCCNC(=O)[C@H]1C[C@H]2C(=O)NCC(=O)N2[C@H]1c1ccc(O)cc1" ?
1.74
